ASSAY SYSTEM: human S1P3 receptor (Homo sapiens)
ASSAY PROTOCOL: S1P3 FLIPR Ca2+ assay in T24 cells stably expressing the human S1P3 receptor
STATED CONDITIONS: tested over 0.61 nM to 10,000 nM, read-out: IC50, activity potency human S1P3 receptor from FLIPR
OBSERVED PROPERTY: pIC50
Answers are plain numbers, as −log10 of the molar value.

# count of solved cases: 4
[[record]]
compound = "Cc1cccc(C)c1NC(NC(=O)c1ccco1)C(Cl)(Cl)Cl (stereo not drawn)"
observed_property = "pIC50"
numeric_result = 5.83

[[record]]
compound = "O=C(NC(Nc1ccc(Cl)cc1)C(Br)(Br)Br)c1ccc(Br)cc1 (stereo not drawn)"
observed_property = "pIC50"
numeric_result = 7.01

[[record]]
compound = "O=C(NC(Nc1ccc(Cl)cc1)C(Cl)(Cl)Cl)c1ccc(Br)cn1 (single isomer, unassigned; (-))"
observed_property = "pIC50"
numeric_result = 8.85

[[record]]
compound = "O=C(NC(Nc1ccc(Cl)cc1)C(F)(F)F)c1ccc(Br)cn1 (stereo not drawn)"
observed_property = "pIC50"
numeric_result = 8.33


Your task in this section: give pIC50 for each listed record.
1. Cc1ccc(NC(NC(=O)c2ccco2)C(Cl)(Cl)Cl)cc1 (stereo not drawn)
2. O=C(NC(Nc1ccc(Cl)cc1)C(Cl)(Cl)Cl)c1cccc(Cl)c1 (stereo not drawn)
3. O=C(NC(Nc1ccccc1F)C(Cl)(Cl)Cl)c1ccco1 (stereo not drawn)
4. O=C(NC(Nc1ccc(F)cc1)C(Cl)(Cl)Cl)c1ccco1 (stereo not drawn)
5. Cc1cc(NC(NC(=O)c2ccco2)C(Cl)(Cl)Cl)ccc1F (stereo not drawn)

1. 6.34
2. 5.82
3. 5.96
4. 6.30
5. 6.37

====

ASSAY SYSTEM: human S1P3 receptor (Homo sapiens, UniProt Q99500)
Construct: expressed in transfected cells
Sequence (Q99500 whole entry): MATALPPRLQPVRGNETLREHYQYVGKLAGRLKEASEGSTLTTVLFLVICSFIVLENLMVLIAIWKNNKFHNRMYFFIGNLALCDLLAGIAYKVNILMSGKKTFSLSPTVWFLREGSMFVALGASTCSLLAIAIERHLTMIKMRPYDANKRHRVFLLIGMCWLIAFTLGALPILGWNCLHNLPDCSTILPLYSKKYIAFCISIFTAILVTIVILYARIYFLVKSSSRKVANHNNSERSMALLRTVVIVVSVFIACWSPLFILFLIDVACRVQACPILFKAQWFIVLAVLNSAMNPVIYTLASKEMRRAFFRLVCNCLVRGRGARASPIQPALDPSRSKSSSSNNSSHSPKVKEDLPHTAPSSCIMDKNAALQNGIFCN
ASSAY PROTOCOL: S1P3 FLIPR Ca2+ assay in T24 cells stably expressing the human S1P3 receptor
Assay type: cell-based
Please respond with reported % Antagonism, human S1P3 receptor from FLIPR for every item in the list.
Numbers only, in %.

[[record]]
compound = "COc1ccc(C(=O)NC(Nc2ccc(Cl)cc2)C(Cl)(Cl)Cl)cc1 (stereo not drawn)"
assay_system = "human S1P3 receptor (Homo sapiens, UniProt Q99500)"
numeric_result = 96

[[record]]
compound = "O=C(NC(Nc1ccc(Cl)cc1)C(Cl)(Cl)Cl)c1ccc(Br)cc1 (stereo not drawn)"
assay_system = "human S1P3 receptor (Homo sapiens, UniProt Q99500)"
numeric_result = 96

[[record]]
compound = "Cc1cccc(C)c1NC(NC(=O)c1ccco1)C(Cl)(Cl)Cl (stereo not drawn)"
assay_system = "human S1P3 receptor (Homo sapiens, UniProt Q99500)"
numeric_result = 41


Respectfully, I request % Antagonism, human S1P3 receptor from FLIPR for each entry included below.
1. O=C(NC(Nc1ccc(Cl)cc1)C(F)(F)F)c1ccc(Br)cc1 (stereo not drawn)
2. O=C(NC(Nc1ccc(Cl)c(F)c1)C(Cl)(Cl)Cl)c1ccc(Br)cc1 (stereo not drawn)
3. O=C(NC(Nc1ccc(Cl)cc1)C(F)(F)Cl)c1ccc(Br)cn1 (stereo not drawn)

[100, 95, 99]

====

ASSAY SYSTEM: human S1P3 receptor (Homo sapiens)
ASSAY PROTOCOL: S1P3 FLIPR Ca2+ assay in T24 cells stably expressing the human S1P3 receptor
STATED CONDITIONS: tested over 0.61 nM to 10,000 nM, read-out: IC50, activity potency human S1P3 receptor from FLIPR
pIC50: −log10 of the molar value.
Output Yes for pIC50 not less than 7; output No otherwise.

Use these answered entries as a reference point.
[[record]]
compound = "COc1ccc(NC(NC(=O)c2ccc(Br)cc2)C(Cl)(Cl)Cl)cc1 (stereo not shown)"
category_label = "No"

[[record]]
compound = "O=C(NC(Nc1ccc(Cl)cc1)C(Cl)(Cl)Cl)c1ccc(Br)o1 (stereo not shown)"
category_label = "No"

[[record]]
compound = "O=C(NC(Nc1cccc(F)c1)C(Cl)(Cl)Cl)c1ccco1 (stereo not shown)"
category_label = "No"

[[record]]
compound = "Cc1ccc(NC(NC(=O)c2ccco2)C(Cl)(Cl)Cl)c(F)c1 (stereo not shown)"
category_label = "No"

[[record]]
compound = "O=C(NC(Nc1ccc(Br)cc1)C(Cl)(Cl)Cl)c1ccco1 (stereo not shown)"
category_label = "No"


Check this compound for pIC50 at or above 7: O=C(NC(Nc1ccc(Cl)cc1)C(Cl)(Cl)Cl)c1ccc(Br)cc1 (single isomer, unassigned; (-))
Yes

Quick check, pIC50 >= 7? O=C(NC(Nc1ccc(Cl)cc1)C(Cl)(Cl)Cl)c1ccc(Cl)cn1 (stereo not shown)
Yes

Textbook exercise: given the entry Cc1cc(F)ccc1NC(NC(=O)c1ccco1)C(Cl)(Cl)Cl (stereo not shown) , state whether its pIC50 is greater than or equal to 7.
No

Hi team, for O=C(NC(Nc1ccc(Cl)cc1)C(Cl)(Cl)Cl)c1ccco1 (stereo not shown) , is the recorded pIC50 at or above 7?
No

Hello, I need to know if O=C(NC(Nc1ccc(Cl)cc1)C(F)(F)Cl)c1ccc(Br)cn1 (stereo not shown) has measured pIC50 not below 7. Thanks!
No

Item O=C(NC(Nc1ccc(Cl)cc1)C(Cl)(Cl)Cl)c1cc(Br)co1 (stereo not shown) with pIC50 of 7 or above?
Yes

Identify whether the reported pIC50 of the following compound is 7 or greater: O=C(NC(Nc1ccc(Cl)c(F)c1)C(Cl)(Cl)Cl)c1ccco1 (stereo not shown)
No

Hi team, for COc1ccc(C(=O)NC(Nc2ccc(Cl)cc2)C(Cl)(Cl)Cl)cc1 (stereo not shown) , is the recorded pIC50 at or above 7?
No

Tell me whether pIC50 is at least 7 here: O=C(NC(Nc1ccc(Cl)cc1)C(Cl)(Cl)Cl)c1ccc(Br)cc1 (stereo not shown)
Yes

Assess whether reported pIC50 for O=C(NC(Nc1ccc(Cl)cc1)C(F)(F)F)c1ccc(Br)cc1 (stereo not shown) sits at 7 or higher.
No

Kindly determine if pIC50 recorded for O=C(NC(Nc1ccc(Cl)cc1)C(Cl)(Cl)Cl)c1ccc(Br)nc1 (stereo not shown) is above or exactly 7.
No

// inclusive: pIC50 at least 7? input: O=C(NC(Nc1ccc(Cl)cc1)C(Cl)(Cl)Cl)c1ccc(Br)cn1 (stereo not shown)
Yes

Is pIC50 at least 7? Consider Cc1ccc(C(=O)NC(Nc2ccc(Cl)cc2)C(Br)(Br)Br)cc1 (stereo not shown)
No

====

ASSAY SYSTEM: human S1P3 receptor (Homo sapiens)
Construct: expressed in transfected cells
ASSAY PROTOCOL: S1P3 FLIPR Ca2+ assay in T24 cells stably expressing the human S1P3 receptor
Format: cell-based
OBSERVED PROPERTY: % Antagonism, human S1P3 receptor from FLIPR (%)
Numbers only, in %.

[[record]]
compound = "O=C(NC(Nc1ccc(Cl)cc1)C(Br)(Br)Br)c1ccc(Br)cc1 (stereo not drawn)"
numeric_result = 100


Answer for every listed entry: what is its % Antagonism, human S1P3 receptor from FLIPR? The entries follow.
1. O=C(NC(Nc1ccc(Cl)c(F)c1)C(Cl)(Cl)Cl)c1ccco1 (stereo not drawn)
2. Cc1ccc(C(=O)NC(Nc2ccc(Cl)cc2)C(Br)(Br)Br)cc1 (stereo not drawn)

[98, 76]

Take each entry in turn and give its % Antagonism, human S1P3 receptor from FLIPR.
1. O=C(NC(Nc1ccc(Br)cc1)C(Cl)(Cl)Cl)c1ccc([N+](=O)[O-])cc1 (stereo not drawn)
2. Cc1ccc(NC(NC(=O)c2ccco2)C(Cl)(Cl)Cl)c(F)c1 (stereo not drawn)
3. Cc1ccc(NC(NC(=O)c2ccco2)C(Cl)(Cl)Cl)cc1 (stereo not drawn)

[91, 102, 100]

====

ASSAY SYSTEM: human S1P3 receptor (Homo sapiens)
Construct: expressed in transfected cells
ASSAY PROTOCOL: S1P3 FLIPR Ca2+ assay in T24 cells stably expressing the human S1P3 receptor
Type: cell-based
Procedure: The compounds of the invention were tested for S1P3 activity using the Flipr assay. The compounds may be assessed for ability to activate or block activation of the human S1P3 receptor in T24 cells stably expressing the human S1P3 receptor. Ten thousand cells/well are plated into 384-well poly-D-lysine coated plates one day prior to use. […] Extracellular dye is removed by washing the cell plates four times prior to placing the plates in the FLIPR (Fluorometric Imaging Plate Reader, Molecular Devices). […]
Provide the recorded % Antagonism, human S1P3 receptor from FLIPR for the entries that follow.
Answers are plain numbers, in %.

Consider the reported % Antagonism, human S1P3 receptor from FLIPR for these compounds:
[[record]]
compound = "O=C(NC(Nc1ccc(Cl)cc1)C(Cl)(Cl)Cl)c1ccc(Br)cn1 (stereo not shown)"
numeric_result = 99

[[record]]
compound = "COc1ccc(NC(NC(=O)c2ccc(Br)cc2)C(Cl)(Cl)Cl)cc1 (stereo not shown)"
numeric_result = 94

[[record]]
compound = "O=C(NC(Nc1ccc(Cl)cc1)C(Cl)(Cl)Cl)c1ccc(Cl)cn1 (stereo not shown)"
numeric_result = 98

[[record]]
compound = "Cc1cc(F)ccc1NC(NC(=O)c1ccco1)C(Cl)(Cl)Cl (stereo not shown)"
numeric_result = 95

[[record]]
compound = "O=C(NC(Nc1ccc(Cl)cc1)C(Cl)(Cl)Cl)c1ccc(F)c(F)c1 (stereo not shown)"
numeric_result = 95

[[record]]
compound = "O=C(NC(Nc1ccc(Cl)cc1)C(Cl)(Cl)Cl)c1cc(Br)co1 (stereo not shown)"
numeric_result = 90


Now for a further compound.
Summary for this compound, O=C(NC(Nc1ccc(Cl)cc1)C(Cl)(Cl)Cl)c1ccc(Br)cn1 (single isomer, unassigned; (-)) : % Antagonism, human S1P3 receptor from FLIPR is 99
